Molecular target: T1, recombinant human IL-6R-extracellular domain (ECD) (human, UniProt P08887 20-365)
T1 construct: extracellular domain; also called IL-6R-ECD
T1 sequence (looked up): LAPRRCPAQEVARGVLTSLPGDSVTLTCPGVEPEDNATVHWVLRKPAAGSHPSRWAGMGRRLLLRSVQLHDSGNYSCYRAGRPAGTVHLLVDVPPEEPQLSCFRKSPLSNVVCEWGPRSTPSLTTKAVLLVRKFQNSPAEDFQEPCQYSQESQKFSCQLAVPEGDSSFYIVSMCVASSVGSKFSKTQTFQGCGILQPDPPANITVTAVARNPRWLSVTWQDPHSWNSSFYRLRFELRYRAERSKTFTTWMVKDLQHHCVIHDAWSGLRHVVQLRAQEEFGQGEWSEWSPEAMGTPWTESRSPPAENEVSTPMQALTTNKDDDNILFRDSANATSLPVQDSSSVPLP
Assay: direct ELISA on IL-6R
reported_metric: EC50 (µg/mL)

clone 40 rabbit anti-IL-6R antibody (antibody, V domains shown) VH: QSLEESGGRLVSPGGSLTLTCTVSGVDLNTYAMGWVRQAPGKGLECIGVILGSGTTYYANWAKGRFTISKTSSTTVDLKMTNLTAADTATYFCAGDRYGSLEEVITPYFDLWGPGILVTVSS VL: DVVMTQTPASVEAAVGGTVTIKCQASQNIYNNLAWYQQKPAQPPKLLIYSASTLESGVPSRFKGSGSGTGYTLTISDLECADAATYYCQSAYYTSYIDHNVFGGGTEVVVE	0.02
clone 51 rabbit anti-IL-6R antibody (antibody, V domains shown) VH: QSVEESGGRLVTPGTPLTLTCTASGFDISSYSLQWVRQSPGKGLEYIGFIRPDGSAHYATWAKGRFTISKTSSTTVDLKMTSLTTEDTATYFCARDDISSDYFPNLWGPGTLVTVSS VL: QVLTQTPSPVSAAVGGTVTISCQASESVYNKNNLAWYQQKPGQPPKLLIYDASDLASGVSSRFKGSGSGTQFTLTISDLECADAATYYCAGGGSGNVYDFGGGTEVVVK	0.03
clone 5 rabbit anti-IL-6R antibody (antibody, V domains shown) VH: QSLEESGGRLVTPGTPLTLTCTVSGIDLSRYWMSWVRQAPGKGLEWIGMISGGNTWYASWAKGRFTISKTSTTVDLKITSPTTEDTATYFCARGIDTGIATTFNLWGPGTLVTVSS VL: AQVLTQTPSSVSAAVGGTVTISCQSSQSVYNNNRLSWFQQKPGQPPKLLIYYASTLASGVPSRFKGSGSGTQFTLTISDLECDDAATYYCQGYYSGVINVFGGGTEVVVK	0.04
